B1: EEHEE_rd3_1049 (parent)
chain: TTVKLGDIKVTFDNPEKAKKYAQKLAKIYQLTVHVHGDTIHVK

Variants of: B1
Method Description: folding stability dG (cDNA display proteolysis); higher = more stable
Settings: PBS, room temperature
Field: folding stability dG. Provide a value for each of the variants that follow.
Answers are plain numbers, in kcal/mol.

{"Mutation List": "K24P", "Result Value": -0.36}
{"Mutation List": "D13S", "Result Value": 2.25}

For every listed record, write down its folding stability dG.
1. Q30P
2. T1D
3. I28W
4. I8F
5. I40Q

-- reply
0.614
0.651
2.15
2.95
0.438
